Test system: KCR, drug-resistant subline of the human breast cancer MCF-7
assay procedure: MTT antiproliferative assay, KCR
Type: cell-based
experimental context: Homo sapiens, MCF7, 72 h, mean of four parallel experiments, read-out: IC50 (µM) ± SD KCR
# IC50 listing for each entry below
value type: IC50

[
  {
    "compound": "Cc1c(O)cc2ccc3c(C)c(O)cc4c3c2c1C(O)C4 (stereo not drawn) [Compound 3, maritin C]",
    "target or test system": "KCR, drug-resistant subline of the human breast cancer MCF-7",
    "recorded measurement": "> 100 µM"
  },
  {
    "compound": "C=Cc1c(C)ccc2c1CCc1c-2ccc(O)c1C [Compound 2, maritin B]",
    "target or test system": "KCR, drug-resistant subline of the human breast cancer MCF-7",
    "recorded measurement": "> 100 µM"
  },
  {
    "compound": "C=Cc1cc(O)c(C)c2c1-c1ccc(O)c(C)c1CC2 [Compound 8]",
    "target or test system": "KCR, drug-resistant subline of the human breast cancer MCF-7",
    "recorded measurement": "> 100 µM"
  }
]
